- MEASUREMENT_PROTOCOL: Genotoxicity in rec-positive Bacillus subtilis H17 assessed as diameter of inhibition zone at 256 ug measured after 24 hrs by rec-assay
- Type: toxicity
- CONDITION_PARAMETERS: in vivo
VALUE_KIND: diameter of the inhibition zone (DIZ) (mm)
Give the value in mm but do not write mm after it.

Which measured diameter of the inhibition zone (DIZ) value corresponds to "C#CCN[C@@H]1C=C[C@]2(O[C@H]([C@@H](CC)C(=O)[C@@H](C)[C@@H](O)[C@H](C)[C@@H]3O[C@@H]([C@@H](CC)C(=O)O)CC[C@@H]3C)[C@@H](C)C[C@H]2C)O[C@@]12CC[C@@](C)([C@H]1CC[C@](O)(CC)[C@H](C)O1)O2" ?
30

Which measured diameter of the inhibition zone (DIZ) value corresponds to "CC[C@@H](C(=O)[C@@H](C)[C@@H](O)[C@H](C)[C@@H]1O[C@@H]([C@@H](CC)C(=O)ONC(=O)c2ccccc2O)CC[C@@H]1C)[C@H]1O[C@]2(C=C[C@@H](O)[C@]3(CC[C@@](C)([C@H]4CC[C@](O)(CC)[C@H](C)O4)O3)O2)[C@H](C)C[C@@H]1C" ?
24

Which measured diameter of the inhibition zone (DIZ) value corresponds to "CC[C@@H](C(=O)[C@@H](C)[C@@H](O)[C@H](C)[C@@H]1O[C@@H]([C@@H](CC)C(=O)ONC(=O)c2ccccc2)CC[C@@H]1C)[C@H]1O[C@]2(C=C[C@@H](O)[C@]3(CC[C@@](C)([C@H]4CC[C@](O)(CC)[C@H](C)O4)O3)O2)[C@H](C)C[C@@H]1C" ?
25

Which measured diameter of the inhibition zone (DIZ) value corresponds to "CC[C@@H](C(=O)[C@@H](C)[C@@H](O)[C@H](C)[C@@H]1O[C@@H]([C@@H](CC)C(=O)ONC(=O)c2ccccc2)CC[C@@H]1C)[C@H]1O[C@]2(C=CC(=O)[C@]3(CC[C@@](C)([C@H]4CC[C@](O)(CC)[C@H](C)O4)O3)O2)[C@H](C)C[C@@H]1C" ?
20

Which measured diameter of the inhibition zone (DIZ) value corresponds to "CC[C@@H](C(=O)[C@@H](C)[C@@H](O)[C@H](C)[C@@H]1O[C@@H]([C@@H](CC)C(=O)O)CC[C@@H]1C)[C@H]1O[C@]2(C=CC(=O)[C@]3(CC[C@@](C)([C@H]4CC[C@](O)(CC)[C@H](C)O4)O3)O2)[C@H](C)C[C@@H]1C" ?
32

Which measured diameter of the inhibition zone (DIZ) value corresponds to "CC[C@@H](C(=O)[C@@H](C)[C@@H](O)[C@H](C)[C@@H]1O[C@@H]([C@@H](CC)C(=O)ONC(=O)c2ccccc2O)CC[C@@H]1C)[C@H]1O[C@]2(C=CC(=O)[C@]3(CC[C@@](C)([C@H]4CC[C@](O)(CC)[C@H](C)O4)O3)O2)[C@H](C)C[C@@H]1C" ?
17

Which measured diameter of the inhibition zone (DIZ) value corresponds to O=[N+]([O-])c1cc[n+]([O-])c2ccccc12 [4-NITROQUINOLINE-1-OXIDE] ?
22

----------
- System: Staphylococcus epidermidis
- MEASUREMENT_PROTOCOL: Antibacterial activity against methicillin-resistant Staphylococcus epidermidis isolate 660 assessed as bacterial growth inhibition measured after 18 hrs by CLSI protocol based two-fold serial microdilution method
- Assay type: functional
- CONDITION_PARAMETERS: isolate 660, 18 h
Provide the recorded log10 MIC for the entries that follow.
Could you please treat all values as log10 of MIC in µM?

Which measured log10 MIC value corresponds to "C#CCN[C@@H]1C=C[C@]2(O[C@H]([C@@H](CC)C(=O)[C@@H](C)[C@@H](O)[C@H](C)[C@@H]3O[C@@H]([C@@H](CC)C(=O)O)CC[C@@H]3C)[C@@H](C)C[C@H]2C)O[C@@]12CC[C@@](C)([C@H]1CC[C@](O)(CC)[C@H](C)O1)O2" ?
1.61

Which measured log10 MIC value corresponds to "CC[C@@H](C(=O)[C@@H](C)[C@@H](O)[C@H](C)[C@@H]1O[C@@H]([C@@H](CC)C(=O)ONC(=O)c2ccccc2O)CC[C@@H]1C)[C@H]1O[C@]2(C=CC(=O)[C@]3(CC[C@@](C)([C@H]4CC[C@](O)(CC)[C@H](C)O4)O3)O2)[C@H](C)C[C@@H]1C" ?
1.86

Which measured log10 MIC value corresponds to "CC[C@@H](C(=O)[C@@H](C)[C@@H](O)[C@H](C)[C@@H]1O[C@@H]([C@@H](CC)C(=O)NCCc2ccc(F)cc2)CC[C@@H]1C)[C@H]1O[C@]2(C=C[C@@H](O)[C@]3(CC[C@@](C)([C@H]4CC[C@](O)(CC)[C@H](C)O4)O3)O2)[C@H](C)C[C@@H]1C" ?
1.56

Which measured log10 MIC value corresponds to "CC[C@@H](C(=O)[C@@H](C)[C@@H](O)[C@H](C)[C@@H]1O[C@@H]([C@@H](CC)C(=O)ONC(=O)c2ccccc2)CC[C@@H]1C)[C@H]1O[C@]2(C=C[C@@H](O)[C@]3(CC[C@@](C)([C@H]4CC[C@](O)(CC)[C@H](C)O4)O3)O2)[C@H](C)C[C@@H]1C" ?
1.26

Which measured log10 MIC value corresponds to "CC[C@@H](C(=O)[C@@H](C)[C@@H](O)[C@H](C)[C@@H]1O[C@@H]([C@@H](CC)C(=O)ONC(=O)c2ccccc2O)CC[C@@H]1C)[C@H]1O[C@]2(C=C[C@@H](O)[C@]3(CC[C@@](C)([C@H]4CC[C@](O)(CC)[C@H](C)O4)O3)O2)[C@H](C)C[C@@H]1C" ?
0.65

Which measured log10 MIC value corresponds to "CC[C@@H](C(=O)[C@@H](C)[C@@H](O)[C@H](C)[C@@H]1O[C@@H]([C@@H](CC)C(=O)O)CC[C@@H]1C)[C@H]1O[C@]2(C=CC(=O)[C@]3(CC[C@@](C)([C@H]4CC[C@](O)(CC)[C@H](C)O4)O3)O2)[C@H](C)C[C@@H]1C" ?
0.73

Which measured log10 MIC value corresponds to "CC[C@@H](C(=O)[C@@H](C)[C@@H](O)[C@H](C)[C@@H]1O[C@@H]([C@@H](CC)C(=O)ONC(=O)c2ccccc2)CC[C@@H]1C)[C@H]1O[C@]2(C=CC(=O)[C@]3(CC[C@@](C)([C@H]4CC[C@](O)(CC)[C@H](C)O4)O3)O2)[C@H](C)C[C@@H]1C" ?
1.87

Which measured log10 MIC value corresponds to "CC[C@@H](C(=O)[C@@H](C)[C@@H](O)[C@H](C)[C@@H]1O[C@@H]([C@@H](CC)C(=O)O)CC[C@@H]1C)[C@H]1O[C@]2(C=C[C@@H](O)[C@]3(CC[C@@](C)([C@H]4CC[C@](O)(CC)[C@H](C)O4)O3)O2)[C@H](C)C[C@@H]1C" ?
0.73
